target_entity: T1, human CD33 (human, UniProt P20138 18-259, limits assumed)
T1 construct: Human CD33 immobilized on the BLI sensor tip or the BIAcore C1 chip; also called Siglec-3
test_protocol: BLI (ForteBio), Fab 100 nM on immobilized CD33
pKd: −log10 of the molar value.

binder: AB-64.1.12 (antibody, V domains shown, Variant of AB-64.1) VH: QVQLVQSGAEVKKPGASVKISCKASGYTFTDYNLHWVRQAPGQGLEWIGFIYPSNRITGYAQKFQGRATLTVDNSASTAYMELSSLRSEDTAVYYCARSDVDYFDYWGQGTLLTVSS VL: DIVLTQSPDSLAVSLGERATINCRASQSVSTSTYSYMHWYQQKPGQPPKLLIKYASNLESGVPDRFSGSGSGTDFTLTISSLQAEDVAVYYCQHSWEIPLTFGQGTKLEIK
pKd: 9.04

binder: AB-64.1.13 (antibody, V domains shown, Variant of AB-64.1) VH: QVQLVQSGAEVKKPGASVKISCKASGYTFTDYNLHWVRQAPGQGLEWIGFIYPSNVITGYAQKFQGRATLTVDTSTSTAYMELSSLRSEDTAVYYCARSDVDYFDYWGQGTLLTVSS VL: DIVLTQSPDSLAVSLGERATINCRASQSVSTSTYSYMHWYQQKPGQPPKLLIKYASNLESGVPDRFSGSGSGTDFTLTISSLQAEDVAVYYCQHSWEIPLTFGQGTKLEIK
pKd: 8.84

binder: AB-64.1.4 (antibody, V domains shown, Variant of AB-64.1) VH: QVQLVQSGAEVKKPGASVKISCKASGYTFTDYNLHWVRQAPGQGLEWIGFIYPSNGITGYAQKFQGRATLTVDTSTSTAYMELSSLRSEDTAVYYCARSDVDYFDYWGQGTLLTVSS VL: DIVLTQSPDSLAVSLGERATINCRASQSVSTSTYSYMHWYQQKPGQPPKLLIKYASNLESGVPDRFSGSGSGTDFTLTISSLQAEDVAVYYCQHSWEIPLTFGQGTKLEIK
pKd: 9.19

binder: AB-64.1.8 (antibody, V domains shown, Variant of AB-64.1) VH: QVQLVQSGAEVKKPGASVKISCKASGYTFTDYNLHWVRQAPGQGLEWIGFIYPSNQITGYAQKFQGRATLTVDNSASTAYMELSSLRSEDTAVYYCARSDVDYFDYWGQGTLLTVSS VL: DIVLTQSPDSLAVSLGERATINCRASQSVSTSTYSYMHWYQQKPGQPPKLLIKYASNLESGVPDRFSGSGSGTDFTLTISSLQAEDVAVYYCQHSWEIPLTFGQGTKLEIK
pKd: 9.10

binder: AB-64.1 (antibody, V domains shown) VH: QVQLVQSGAEVKKPGASVKISCKASGYTFTDYNLHWVRQAPGQGLEWIGFIYPSNGITGYAQKFQGRATLTVDNSTSTAYMELSSLRSEDTAVYYCARSDVDYFDYWGQGTLLTVSS VL: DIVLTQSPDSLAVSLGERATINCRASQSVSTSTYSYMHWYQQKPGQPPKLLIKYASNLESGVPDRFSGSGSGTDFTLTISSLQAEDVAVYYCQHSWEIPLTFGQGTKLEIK
pKd: 9.30
